tested on: Streptococcus pneumoniae; experiment: In vitro minimum inhibitory concentration against Streptococcus pneumoniae UC41; type: functional
REPORTED_METRIC: MIC

Recorded MIC for CNCCCN(C)C(=O)[C@H]1NC(=O)[C@H]2NC(=O)[C@H](NC(=O)[C@@H]3NC(=O)[C@H]4NC(=O)[C@@H](Cc5ccc(c(Cl)c5)Oc5cc3cc(c5O[C@@H]3O[C@@H](CO)[C@@H](O)[C@H](O)[C@@H]3NC(=O)CCCCCCC(C)C)Oc3ccc(cc3Cl)[C@H]2O[C@@H]2O[C@@H](CO)[C@@H](O)[C@H](O)[C@@H]2NC(C)=O)NC(=O)[C@H](N)c2ccc(O)c(c2)Oc2cc(O)cc4c2)c2ccc(O)c(c2)-c2c(O[C@H]3O[C@H](CO)[C@@H](O)[C@@H](O)[C@@H]3O)cc(O)cc21 , please? 0.12 µg/mL

----------
system: Streptococcus pneumoniae; test: In vitro minimum inhibitory concentration against Streptococcus pneumoniae UC41; assay type: functional
# MIC annotations
Could you give me the number in µg/mL? Just the number is fine.

Illustrative cases are given below, each with its answer.
CPD_SMILES | MEASURED_ON | MIC / µg/mL
CN(C)CCCNC(=O)[C@H]1NC(=O)[C@H]2NC(=O)[C@H](NC(=O)[C@@H]3NC(=O)[C@H]4NC(=O)[C@@H](Cc5ccc(c(Cl)c5)Oc5cc3cc(c5O)Oc3ccc(cc3Cl)[C@H]2O)NC(=O)[C@H](N)c2ccc(O)c(c2)Oc2cc(O)cc4c2)c2ccc(O)c(c2)-c2c(O)cc(O)cc21 | Streptococcus pneumoniae | 0.12
NCCCNC(=O)[C@H]1NC(=O)[C@H]2NC(=O)[C@H](NC(=O)[C@@H]3NC(=O)[C@H]4NC(=O)[C@@H](Cc5ccc(c(Cl)c5)Oc5cc3cc(c5O)Oc3ccc(cc3Cl)[C@H]2O)NC(=O)[C@H](N)c2ccc(O)c(c2)Oc2cc(O)cc4c2)c2ccc(O)c(c2)-c2c(O)cc(O)cc21 | Streptococcus pneumoniae | 0.12
CNCCNC(=O)[C@H]1NC(=O)[C@H]2NC(=O)[C@H](NC(=O)[C@@H]3NC(=O)[C@H]4NC(=O)[C@@H](Cc5ccc(c(Cl)c5)Oc5cc3cc(c5O)Oc3ccc(cc3Cl)[C@H]2O)NC(=O)[C@H](N)c2ccc(O)c(c2)Oc2cc(O)cc4c2)c2ccc(O)c(c2)-c2c(O)cc(O)cc21 | Streptococcus pneumoniae | 0.12

Recorded MIC for CNCCN(C)C(=O)[C@H]1NC(=O)[C@H]2NC(=O)[C@H](NC(=O)[C@@H]3NC(=O)[C@H]4NC(=O)[C@@H](Cc5ccc(c(Cl)c5)Oc5cc3cc(c5O[C@@H]3O[C@@H](CO)[C@@H](O)[C@H](O)[C@@H]3NC(=O)CCCCCCC(C)C)Oc3ccc(cc3Cl)[C@H]2O[C@@H]2O[C@@H](CO)[C@@H](O)[C@H](O)[C@@H]2NC(C)=O)NC(=O)[C@H](N)c2ccc(O)c(c2)Oc2cc(O)cc4c2)c2ccc(O)c(c2)-c2c(O[C@H]3O[C@H](CO)[C@@H](O)[C@@H](O)[C@@H]3O)cc(O)cc21 , please? 0.12

Recorded MIC for CC(=O)N[C@@H]1[C@H](O[C@@H]2c3ccc(c(Cl)c3)Oc3cc4cc(c3O[C@@H]3O[C@@H](CO)[C@@H](O)[C@H](O)[C@@H]3NC(=O)CCCCCCC(C)C)Oc3ccc(cc3Cl)C[C@H]3NC(=O)[C@H](N)c5ccc(O)c(c5)Oc5cc(O)cc(c5)[C@H](NC3=O)C(=O)N[C@H]4C(=O)N[C@H]3C(=O)N[C@@H]2C(=O)N[C@H](C(=O)NCCCCCN(C)C)c2cc(O)cc(O[C@H]4O[C@H](CO)[C@@H](O)[C@@H](O)[C@@H]4O)c2-c2cc3ccc2O)O[C@@H](CO)[C@@H](O)[C@@H]1O , please? 0.06

Values from ChEMBL document CHEMBL1124366
